Numbers sourced from ChEMBL document CHEMBL3885881.

Record form. Attribute: ABSOLUTE EOSINOPHIL. Fill in for each entry.
# Species on record: Rattus norvegicus
# Assay overview: DrugMatrix - Regimen: Daily Repeat
# Assay type: toxicity, organism-based, Sprague-Dawley
# Set-up: regimen Daily Repeat, gender Male, age 6-8 weeks
# Recorded conditions: in vivo, po, 1500 mg/kg, 120 h, tissue Blood, route oral GAVAGE, dose level High, time 5 day, vehicle .5 % CMC
Give bare numbers, in CELLS/uL.

>>> reported_result("COC(=O)Nc1nc2ccc([S+]([O-])c3ccccc3)cc2[nH]1 (stereo not given)")
0
>>> reported_result("CC(C)=CCC/C(C)=C/CO")
0
>>> reported_result("CN(C)[C@@H]1C(O)=C(C(N)=O)C(=O)[C@@]2(O)C(O)=C3C(=O)c4c(O)ccc(Cl)c4[C@@](C)(O)[C@H]3C[C@@H]12")
167.33
>>> reported_result("CC(C)Oc1ccc2c(=O)c(-c3ccccc3)coc2c1")
0

Read the next record carefully.
Qu. Which ABSOLUTE EOSINOPHIL reading was recorded for the compound `O=c1cnn([C@@H]2O[C@H](CO)[C@@H](O)[C@H]2O)c(=O)[nH]1` ?
Ans. 44.67

###

Consider the following compounds; for each one, report its LYMPHOCYTE.
# Species: Rattus norvegicus
# Assay overview: DrugMatrix - Regimen: Daily Repeat
# Type: toxicity, organism-based, Sprague-Dawley
# Set-up: regimen Daily Repeat, gender Male, age 6-8 weeks
# Recorded conditions: in vivo, po, 0 mg/kg, 72 h, tissue Blood, route oral GAVAGE, dose level Control, time 3 day, vehicle .5 % CMC
One number for each entry, in %.

>>> reported_result("CN(C/C=C/C#CC(C)(C)C)Cc1cccc2ccccc12 [TERBINAFINE]")
81.4
>>> reported_result("CNCCC(Oc1ccc(C(F)(F)F)cc1)c1ccccc1 (centres undefined) [FLUOXETINE]")
87.5
>>> reported_result("COC1=C(OC)C(=O)C(CCCCCCCCCCO)=C(C)C1=O [IDEBENONE]")
89.83

Now for a further compound.
Qu. Which LYMPHOCYTE is listed for CCN(CC)CCOc1ccc(/C(=C(/Cl)c2ccccc2)c2ccccc2)cc1 [ENCLOMIPHENE] ?
Ans. 89.33

###

# Species: Rattus norvegicus
# Assay overview: DrugMatrix - Regimen: Daily Repeat
# Type: toxicity, organism-based, Sprague-Dawley
# Parameters: regimen Daily Repeat, gender Male, age 6-8 weeks
# Recorded conditions: in vivo, po, 1500 mg/kg, 120 h, tissue Plasma, route oral GAVAGE, dose level High, time 5 day, vehicle .5 % CMC
Property measured: BLOOD UREA NITROGEN (mg/dL)
Answers are plain numbers, in mg/dL.

>>> reported_result("O=c1cnn([C@@H]2O[C@H](CO)[C@@H](O)[C@H]2O)c(=O)[nH]1")
16.33

Here are 4 compounds. What values of BLOOD UREA NITROGEN were reported for them?
1. CC(C)Oc1ccc2c(=O)c(-c3ccccc3)coc2c1
2. CN(C)[C@@H]1C(O)=C(C(N)=O)C(=O)[C@@]2(O)C(O)=C3C(=O)c4c(O)ccc(Cl)c4[C@@](C)(O)[C@H]3C[C@@H]12
3. COC(=O)Nc1nc2ccc([S+]([O-])c3ccccc3)cc2[nH]1 (stereo not given)
4. CC(C)=CCC/C(C)=C/CO

Ans.
14.67
19.67
15.33
18

###

What TOTAL PROTEIN was measured for each of the following?
# Species: Rattus norvegicus
# Assay overview: DrugMatrix - Regimen: Daily Repeat
# Type: toxicity, organism-based, Sprague-Dawley
# Design: regimen Daily Repeat, gender Male, age 6-8 weeks
# Recorded conditions: in vivo, sc, 0 mg/kg, 120 h, tissue Plasma, route subcutaneous, dose level Control, time 5 day, […]

Study these solved cases before continuing.
>>> reported_result("CCN(CC)CCOCCC1=CCC2CC1C2(C)C (stereo not given) [MYRTECAINE]")
"6.05 G/DL"
>>> reported_result("Oc1c(Cl)cc(Cl)c(Cl)c1Cc1c(O)c(Cl)cc(Cl)c1Cl [HEXACHLOROPHENE]")
"6.05 G/DL"
>>> reported_result("CCC(=O)O[C@]1(C(=O)CCl)[C@@H](C)C[C@H]2[C@@H]3CCC4=CC(=O)C=C[C@]4(C)[C@@]3(F)[C@@H](O)C[C@@]21C [CLOBETASOL PROPIONATE]")
"5.83 G/DL"
>>> reported_result("O=C(Nc1ccc(Br)cc1)c1cc(Br)cc(Br)c1O [TRIBROMSALAN]")
"5.83 G/DL"

Qu. May I ask what TOTAL PROTEIN has been recorded for CC(C)(C)CC(C)(C)c1ccc(OCCOCC[N+](C)(C)Cc2ccccc2)cc1.[Cl-] [BENZETHONIUM CHLORIDE] ?
Ans. 6.05 G/DL

###

# Organism: Rattus norvegicus
# Assay overview: DrugMatrix - Regimen: Daily Repeat
# Assay type: toxicity, organism-based, Sprague-Dawley
# Set-up: regimen Daily Repeat, gender Male, age 6-8 weeks
# Recorded conditions: in vivo, sc, 0 mg/kg, 72 h, tissue Blood, route subcutaneous, dose level Control, time 3 day, […]
Property measured: MEAN CORPUSCULAR HEMOGLOBIN (pg)
Numbers only, in pg.

Items follow; give MEAN CORPUSCULAR HEMOGLOBIN for each.
1. O=C(Nc1ccc(Br)cc1)c1cc(Br)cc(Br)c1O
2. CCN(CC)CCOCCC1=CCC2CC1C2(C)C (stereo not given)
3. CC(C)(C)CC(C)(C)c1ccc(OCCOCC[N+](C)(C)Cc2ccccc2)cc1.[Cl-] [BENZETHONIUM CHLORIDE]
4. CCC(=O)O[C@]1(C(=O)CCl)[C@@H](C)C[C@H]2[C@@H]3CCC4=CC(=O)C=C[C@]4(C)[C@@]3(F)[C@@H](O)C[C@@]21C [CLOBETASOL PROPIONATE]

Ans.
[23.23, 25.25, 23.78, 23.23]

Qu. Please look up its MEAN CORPUSCULAR HEMOGLOBIN: `Oc1c(Cl)cc(Cl)c(Cl)c1Cc1c(O)c(Cl)cc(Cl)c1Cl`
Ans. 23.78

###

# Organism: Rattus norvegicus
# Assay overview: DrugMatrix - Regimen: Daily Repeat
# Type: toxicity, organism-based, Sprague-Dawley
# Design: regimen Daily Repeat, gender Male, age 6-8 weeks
# Recorded conditions: in vivo, po, 0 mg/kg, […], tissue Blood, route oral GAVAGE, dose level Control, time 14 day, vehicle 100 % SALINE
Property measured: ABSOLUTE BASOPHIL (cells/µL)
Answers are plain numbers, in cells/µL.

Qu. GET /values?readout=ABSOLUTE BASOPHIL&item= `Nc1ncnc2c1ncn2[C@@H]1O[C@H](CO)[C@@H](O)[C@H]1F`
Ans. 93.3

###

So I've got a bunch of molecules here, and I need their CHLORIDE values.
# Species on record: Rattus norvegicus
# Assay overview: DrugMatrix - Regimen: Daily Repeat
# Type: toxicity, organism-based, Sprague-Dawley
# Set-up: regimen Daily Repeat, gender Male, age 6-8 weeks
# Recorded conditions: in vivo, po, 0 mg/kg, 72 h, tissue Plasma, route oral GAVAGE, dose level Control, time 3 day, vehicle .5 % CMC
Answers are plain numbers, in MEQ/L.

Check out these entries, answers already filled in.
>>> reported_result("COC1=C(OC)C(=O)C(CCCCCCCCCCO)=C(C)C1=O [IDEBENONE]")
101
>>> reported_result("Clc1ccccc1CN1CCc2sccc2C1 [TICLOPIDINE]")
104.17
>>> reported_result("CN/C(=N/CCSCc1nc[nH]c1C)NC#N [CIMETIDINE]")
101

// for each molecule in input: emit CHLORIDE
1. O=C1CN=C(c2ccccc2Cl)c2cc([N+](=O)[O-])ccc2N1 [CLONAZEPAM]
2. CCN(CC)CCOc1ccc(/C(=C(/Cl)c2ccccc2)c2ccccc2)cc1 [ENCLOMIPHENE]

Ans.
1. 101
2. 99.17

###

# Species on record: Rattus norvegicus
# Assay overview: DrugMatrix - Regimen: Daily Repeat
# Assay type: toxicity, organism-based, Sprague-Dawley
# Design: regimen Daily Repeat, gender Male, age 6-8 weeks
# Recorded conditions: in vivo, po, 0 mg/kg, 72 h, tissue Plasma, route oral GAVAGE, dose level Control, time 3 day, vehicle .5 % CMC
Property measured: TOTAL BILIRUBIN (mg/dL)
One number for each entry, in mg/dL.

Example entries and their recorded answers appear below.
>>> reported_result("CN(C)[C@@H]1C(O)=C(C(N)=O)C(=O)[C@@]2(O)C(O)=C3C(=O)c4c(O)ccc(Cl)c4[C@@](C)(O)[C@H]3C[C@@H]12")
0.2
>>> reported_result("COc1cc2nc(N3CCN(C(=O)c4ccco4)CC3)nc(N)c2cc1OC")
0.18
>>> reported_result("CN/C(=N/CCSCc1nc[nH]c1C)NC#N")
0.15

Need TOTAL BILIRUBIN for each of these compounds.
1. O=C1Nc2ccc(Cl)cc2C(c2ccccc2Cl)=NC1O (centres undefined)
2. Clc1ccccc1CN1CCc2sccc2C1
3. CCN(CC)CCOc1ccc(/C(=C(/Cl)c2ccccc2)c2ccccc2)cc1
4. COC1=C(OC)C(=O)C(CCCCCCCCCCO)=C(C)C1=O
5. O=C1CN=C(c2ccccc2Cl)c2cc([N+](=O)[O-])ccc2N1

Ans.
1. 0.18
2. 0.78
3. 0.15
4. 0.15
5. 0.15

Qu. Consider the compound Cn1c(=O)c2c(ncn2CC(O)CO)n(C)c1=O (centres undefined) and give its measured TOTAL BILIRUBIN.
Ans. 0.2
